experimental target: BCRP (Homo sapiens (Human), UniProt Q9UNQ0)
Sequence (Q9UNQ0 whole entry): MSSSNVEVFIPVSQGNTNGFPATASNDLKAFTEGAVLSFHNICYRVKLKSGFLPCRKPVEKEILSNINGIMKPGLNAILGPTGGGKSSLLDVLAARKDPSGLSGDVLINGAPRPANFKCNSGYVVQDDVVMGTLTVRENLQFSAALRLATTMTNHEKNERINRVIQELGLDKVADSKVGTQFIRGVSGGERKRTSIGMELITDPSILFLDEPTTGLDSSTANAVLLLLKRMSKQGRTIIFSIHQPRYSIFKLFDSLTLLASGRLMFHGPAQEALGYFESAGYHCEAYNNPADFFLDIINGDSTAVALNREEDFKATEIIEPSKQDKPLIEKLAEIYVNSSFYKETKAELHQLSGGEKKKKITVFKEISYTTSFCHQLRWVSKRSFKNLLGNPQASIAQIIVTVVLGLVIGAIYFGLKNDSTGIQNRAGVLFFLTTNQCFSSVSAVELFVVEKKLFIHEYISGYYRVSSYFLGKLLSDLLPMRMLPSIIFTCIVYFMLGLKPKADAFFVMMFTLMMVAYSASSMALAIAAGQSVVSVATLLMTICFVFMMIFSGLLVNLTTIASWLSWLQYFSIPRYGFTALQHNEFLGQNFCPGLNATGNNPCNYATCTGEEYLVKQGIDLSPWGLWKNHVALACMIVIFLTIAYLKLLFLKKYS
assay method text: BCRP MDCKII efflux assay (Assay 7)
Format: in vitro ADME
measurement setup: dog; efflux ratio Papp(B-A)/Papp(A-B), BCRP MDCKII cells; read-out: Assay 7 Pe Ratio
Listed compounds paired with reported efflux ratio at 2 h, 1 µM

Worked examples, 3 compounds total:
[[record]]
compound = "C=CC(=O)N1CCC[C@@H](c2ccc3ncnc(Nc4cc(C)c(Oc5ccc6c(c5)ncn6C)cc4F)c3n2)C1 (racemic)"
obs_value = 1.4

[[record]]
compound = "C=CC(=O)N1CCN(c2ccc3ncnc(Nc4ccc(Oc5ccc6c(c5)ncn6C)c(Cl)c4)c3n2)CC1"
obs_value = 15.4

[[record]]
compound = "C=CC(=O)N1CCC(Sc2ccc3ncnc(Nc4ccc(Oc5ccc6c(c5)ncn6C)c(C)c4F)c3n2)CC1"
obs_value = 5.2


So the reported efflux ratio at 2 h, 1 µM for C=CC(=O)N1C[C@@H]2C[C@H]1C[C@H]2c1ccc2ncnc(Nc3ccc(Oc4ccn5ncnc5c4)c(C)c3F)c2n1 (racemic) , on BCRP (Homo sapiens (Human), UniProt Q9UNQ0), turned out to be 3.2
